B1: TPR t1 (parent)
chain: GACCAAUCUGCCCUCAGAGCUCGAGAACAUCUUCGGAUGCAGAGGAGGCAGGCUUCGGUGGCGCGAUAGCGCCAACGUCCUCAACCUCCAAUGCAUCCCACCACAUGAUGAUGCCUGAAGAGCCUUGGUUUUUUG

Variants of: B1
Assay: polymerase ribozyme fitness, log enrichment relative to wild type (log ratio); higher = more active; in vitro selection for triplet polymerase activity
Here, each record is paired with measured polymerase ribozyme fitness (log ratio) data.

>>> df
   mutant_label  result
0     C20U G48U   -2.05

Task: State its polymerase ribozyme fitness (log ratio): C56G C101U G120A
Output: -0.227

Task: Check the records and state polymerase ribozyme fitness (log ratio) for U9A G17A G113A
Output: -3.11
